Test system: MRC-5 (human lung fibroblast cell line, ATCC CCL-171)
Assay info: Cytotoxicity on lung cells (resazurin), MRC-5
Condition parameters: Homo sapiens, MRC5, read-out: IC50 on pulmonary cells
Readout name: IC50

{"Input smiles": "O=C(/C=C/C=C/c1ccccc1)c1ccc(O)cc1", "IC50": "46.3 to 96.7 µM"}

Next item in the queue.
Incoming: Sample O=C(/C=C/C=C/c1ccccc1)c1cccc(O)c1 — what was its IC50?
Outgoing: 46.3 to 96.7 µM

====

The next entries give measured MIC for Escherichia coli (ATCC 10536).
Write the value in µM as a bare number.

{"Compound": "CC1(C)S[C@@H]2[C@H](NC(=O)Cc3ccccc3)C(=O)N2[C@H]1C(=O)O [PEN, Penicillin G, reference compound]", "Units text": "µM", "Reported measurement": 118}

Next item in the queue.
Incoming: Value wanted: MIC (Escherichia coli (ATCC 10536)) of entry CN[C@H](CC(C)C)C(=O)N[C@H]1C(=O)N[C@@H](CC(N)=O)C(=O)N[C@H]2C(=O)N[C@H]3C(=O)N[C@H](C(=O)N[C@H](C(=O)O)c4cc(O)cc(O)c4-c4cc3ccc4O)[C@H](O)c3ccc(c(Cl)c3)Oc3cc2cc(c3O[C@@H]2O[C@H](CO)[C@@H](O)[C@H](O)[C@H]2O[C@H]2C[C@](C)(N)[C@H](O)[C@H](C)O2)Oc2ccc(cc2Cl)[C@H]1O [VAN, vancomycin, reference compound]
Outgoing: 53.8

Origin of the recorded values: paper PMC6151560
